test-description: inhibitors of TNFa-induced NFkB p65 translocation, primary screen, imaging, HUVEC, MLSMR starter and 10KST1 sets (AID 438);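 note: compound added about 3h40 before a 20 min TNFalpha stimulation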
conditions-used: HUVEC TNFa-induced p65 nuclear translocation; measured here: nuclei count (cytotoxicity indicator), at 2.08 µM
measure: cell count

| compound | result-value |
| --- | --- |
| Cc1cc(Nc2ccc3ccccc3c2)n2ncnc2n1 | 503 |
| CCC1Oc2ccc(C)cc2N(CC(=O)N(Cc2cccnc2)Cc2ccc(C)o2)C1=O (stereo unspecified) | 685 |
| N#Cc1nc(-c2cccs2)oc1NCc1ccccc1Cl | 657 |
| O=C(Nc1ccccc1C(F)(F)F)c1cc(S(=O)(=O)N2CCOCC2)ccc1F | 415 |
| O=C(CSc1ncccn1)NCc1ccccc1 | 362 |
| Cc1c(C#N)sc2nc(-c3ccccc3)nc(N3CCCC3)c12 | 388 |
| c1cn(CC2(Cn3ccnc3)COC2)cn1 | 793 |
| CCOc1ccc(Cn2nnc(C(=O)Nc3cc(C)cc(C)c3)c2N)cc1 | 751 |
| Cc1ccccc1N1C(=O)C2ON(c3ccccc3)C(c3cccnc3)C2C1=O (stereo unspecified) | 541 |
| CCSc1nc2sc3c(c2c2nnc(SCC(=O)NCc4ccco4)n12)CCCC3 | 550 |
| CN1CCCC(OC(=O)c2ccc3c(c2)OCCO3)C1 (stereo unspecified) | 214 |
| CCc1nnc(SCC(=O)NC2CCCCC2)nc1CC | 774 |
| CCOC(=O)N1CCN(C(=O)CSc2ncnc3ccccc23)CC1 | 747 |
| CCOC(=O)Nc1ccc2c(c1)N(C(=O)OCCN(C)C)c1ccccc1CC2 | 425 |
| CCN1C(=O)C2(C(C#N)=C(N)Oc3n[nH]c(C(C)C)c32)c2ccccc21 (stereo unspecified) | 679 |
| CCOC(=O)Cc1[nH]nc2c1C(c1cc(OC)ccc1OC)C(C#N)=C(N)O2 (stereo unspecified) | 591 |
| COCCNc1nc2c(c(=O)n(C)c(=O)n2C)n1Cc1cccc(C(F)(F)F)c1 | 698 |
| Cc1ccc(C2CC(c3cccs3)n3nc(N)nc3N2)cc1 (stereo unspecified) | 390 |
| O=C(CSc1nnc2c3cc(F)ccc3nc(-c3ccccc3)n12)N1CCOCC1 | 597 |
| Cc1ccccc1-n1c(=O)cc(NCc2ccc3c(c2)OCO3)[nH]c1=O | 447 |
| C=CCn1c(SCc2ccc(C#N)cc2)nnc1-c1cccc(Cl)c1 | 397 |
| O=C(Cc1ccccc1)Nc1ccc(CN2CCOCC2)cc1 | 451 |
| O=C(c1cccc(F)c1)N1CCc2ccccc21 | 490 |
| Cc1nn(C(=O)c2ccoc2C)c(N)c1-c1ccccc1 | 764 |
| COc1ccc(OCC(O)CN2C(=O)NC(C)(C)C2=O)cc1 (stereo unspecified) | 617 |
| Cc1ccc(CNC(=O)c2cc3c(=O)n4ccccc4nc3n(Cc3ccco3)c2=N)cc1 | 620 |
| COc1ccc2[nH]cc(C(=O)CN(C)CCc3ccc(OC)c(OC)c3)c2c1 | 516 |
| CN(C)CCCOC(=O)c1ccc(Cl)cc1Cl | 542 |
| O=C1C(=O)N(CCCn2ccnc2)C(c2ccccn2)/C1=C(/O)c1ccccc1 (stereo unspecified) | 436 |
| Cc1cc(=O)oc(C)c1C(=O)NCCC1=CCCCC1 | 603 |
| Cc1ccc(C(=O)C2C(c3cccs3)NC(=O)NC2(O)C(F)(F)F)cc1 (stereo unspecified) | 716 |
| O=C(NCc1ccco1)c1ccccc1Nc1ccc(F)cc1 | 575 |
| O=C(NCC(c1cccnc1)N1CCN(c2ccccc2)CC1)c1ccc2c(c1)OCO2 (stereo unspecified) | 362 |
| CCCc1cc(-n2ccnc2)n2c(nc3ccccc32)c1C#N | 571 |
| CCCCCCOc1ccc(N2C(=O)CC(N3CCN(C(=O)c4ccco4)CC3)C2=O)cc1 (stereo unspecified) | 632 |
| CCSc1oc(-c2cccs2)nc1S(=O)(=O)c1ccccc1 | 690 |
| CSc1cccc(NC(=O)C2CCN(S(=O)(=O)c3ccc(F)cc3)CC2)c1 | 376 |
| Cc1cc(=O)[nH]c(COc2ccccc2)n1 | 687 |
| Cn1c(N)c(C#N)c2c(c1=S)CSC(C)(C)C2 | 571 |
| CCN(CC)C(=O)C1CCCN(Cc2ccc(N(C)C)cc2)C1 (stereo unspecified) | 376 |
| O=C(CSc1nnc2scc(-c3ccccc3)n12)Nc1nsc(-c2ccccc2)n1 | 673 |
| CC(=O)N1CCC(N(C(=O)Nc2ccc(C)c(C)c2)C2CCCC2)CC1 | 644 |
| Nc1nnnn1/N=C/c1cccs1 | 656 |
| O=C(Sc1nnnn1C1CCCCC1)c1cccs1 | 242 |
| Cc1ccc2nsnc2c1S(=O)(=O)N(Cc1cc2cccc(C)c2[nH]c1=O)CC1CCCO1 (stereo unspecified) | 641 |
| CCCC(=O)Nc1cnc(NC(=O)c2cccc(F)c2)cc1C | 465 |
